test-description: self-splicing fitness, log relative to wild type (ln ratio); higher = more splicing; Tetrahymena group I intron in knt gene, E. coli kanamycin selection, DiMSum; sequences stand for … in CUCUCU…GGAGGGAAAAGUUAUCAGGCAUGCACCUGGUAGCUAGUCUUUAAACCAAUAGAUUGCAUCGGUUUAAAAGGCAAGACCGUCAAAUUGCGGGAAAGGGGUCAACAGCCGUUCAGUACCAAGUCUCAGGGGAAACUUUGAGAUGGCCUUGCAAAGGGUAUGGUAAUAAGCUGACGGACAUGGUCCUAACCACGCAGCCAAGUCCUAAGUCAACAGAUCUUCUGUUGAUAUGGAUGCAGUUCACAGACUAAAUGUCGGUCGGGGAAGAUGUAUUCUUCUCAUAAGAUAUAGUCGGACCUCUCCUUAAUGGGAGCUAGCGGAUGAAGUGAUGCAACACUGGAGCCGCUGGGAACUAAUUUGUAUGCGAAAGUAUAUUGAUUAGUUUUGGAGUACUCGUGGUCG;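 also: selection with 25 µg/mL kanamycin versus none on LB agar overnight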
reported-conditions: 37 °C
property: self-splicing fitness (ln)

AUAAAGCAAUAUUACGCCGC -2.05
CUAAAGCAAUAUUACGGUGC -3.15
GCUGAGCAAUAUUACGCACA -3.05
GGCAAGCAAUAUUACGUUAG -2.57
UGUAAGCAAUAUUACGAGGG -2.14
AAAUAGCAAUAUUACGCCGG -0.713
GAGGAGCAAUAUUACGGCUU -2.39
UCGUAGCAAUAUUACGUAUG -1.93
GUCAAGCAAUAUUACGCACA -0.776
AUCAAGCAAUAUUACGGGUC -2.19
UCGAAGCAAUAUUACGGCGG -0.364
GGUUAGCAAUAUUACGAUAC -0.0363
AAACAGCAAUAUUACGUUAC -2.56
UGGGAGCAAUAUUACGGCAC -0.43
CUUGAGCAAUAUUACGGAGC -1.42
UACGAGCAAUAUUACGUUGU -2.68
GUUAAGCAAUAUUACGGGCG -0.388
AGAUAGCAAUAUUACGGUGC -0.624
AAAGAGCAAUAUUACGCAUC -2.24
AUCGAGCAAUAUUACGAUUU -0.535
UGCGAGCAAUAUUACGAAUG -2.43
UGUCAGCAAUAUUACGGAUG -0.996

---

test-description: self-splicing fitness, log relative to wild type (ln ratio); higher = more splicing; Tetrahymena group I intron in knt gene, E. coli kanamycin selection, DiMSum; sequences stand for … in CUCUCU…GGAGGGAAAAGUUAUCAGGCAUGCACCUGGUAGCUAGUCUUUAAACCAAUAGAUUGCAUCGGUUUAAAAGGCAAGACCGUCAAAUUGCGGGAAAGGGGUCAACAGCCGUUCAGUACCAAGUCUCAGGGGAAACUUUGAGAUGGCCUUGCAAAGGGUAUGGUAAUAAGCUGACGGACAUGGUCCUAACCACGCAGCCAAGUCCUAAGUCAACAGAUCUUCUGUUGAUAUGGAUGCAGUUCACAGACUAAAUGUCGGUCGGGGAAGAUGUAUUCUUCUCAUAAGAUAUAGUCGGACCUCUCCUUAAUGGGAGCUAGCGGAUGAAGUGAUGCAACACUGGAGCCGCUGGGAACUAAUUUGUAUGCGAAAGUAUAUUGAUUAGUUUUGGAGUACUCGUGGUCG
reported-conditions: 37 °C
property: self-splicing fitness (ln)

CGCGAGCAAUAUUACGAGUG -1.78
UACCAGCAAUAUUACGCGCG 0.573
CGAGAGCAAUAUUACGGCUU -3.05
AUUUAGCAAUAUUACGCCAU 0.446
AACUAGCAAUAUUACGGAUU -0.792
UGCGAGCAAUAUUACGUGAC -2.31
AACGAGCAAUAUUACGCGGA -2.01
GGCUAGCAAUAUUACGCCUG -1.95
GCCCAGCAAUAUUACGUGUA -0.0902
AAUAAGCAAUAUUACGGUUU -0.165
GUGGAGCAAUAUUACGUUGG -3.36
UUGCAGCAAUAUUACGAUCA -0.0311
UGAAAGCAAUAUUACGUUCA -1.48
CUCGAGCAAUAUUACGUAAG -1.26
CGCGAGCAAUAUUACGCCAU -3.92
AUCGAGCAAUAUUACGGAGA -2.7
ACUGAGCAAUAUUACGCGCA -1.66
UGUGAGCAAUAUUACGGGAG -2.04
GCCAAGCAAUAUUACGAUAU -2.01
GAAUAGCAAUAUUACGGCUA -0.595
ACAAAGCAAUAUUACGAUGU -2.43
CCACAGCAAUAUUACGCAGG -2.35
AGACAGCAAUAUUACGGCGU -0.314
CCCAAGCAAUAUUACGAGGA -0.592
ACGAAGCAAUAUUACGUAGC -1.16
GAUAAGCAAUAUUACGAGAU -2.14
GUGGAGCAAUAUUACGCAAU -1.25
AACGAGCAAUAUUACGUGUA -3.2
UCUGAGCAAUAUUACGAAUA -1.82
CGUGAGCAAUAUUACGGUGC -3.39
UGCAAGCAAUAUUACGCGAC -2.65
UGGAAGCAAUAUUACGCCCA -0.992
CCUAAGCAAUAUUACGGGAA -1.83
GAAGAGCAAUAUUACGCAAU -1.65
GCGCAGCAAUAUUACGGGUG -1.65
GCACAGCAAUAUUACGGUGA -0.455
ACGGAGCAAUAUUACGGGGA -3.6
GUCUAGCAAUAUUACGUGAU -0.766
GGCCAGCAAUAUUACGCGCU -1.76
ACCAAGCAAUAUUACGGCUU -1.85
AAACAGCAAUAUUACGCAUC -2.07
CUAGAGCAAUAUUACGGGAC -1.05
AAAAAGCAAUAUUACGUCAA -0.836
CCCGAGCAAUAUUACGGUGG -3.2
UGGUAGCAAUAUUACGUGAG 0.0891
GGGCAGCAAUAUUACGCUGU -1.21
GCUCAGCAAUAUUACGUUCA -0.686
UGGGAGCAAUAUUACGGCGA -1.23
